Recorded measurements of normalized growth, one per entry
- experiment: chemical genetic growth profiling, strain panel (AID 1159580);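 also: tested at 20 µM; growth read once vehicle control cultures reached saturation at 30 °C; 1 = growth at the plate median or of vehicle wells; lower values mean less growth of the strain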
- testContext: S. cerevisiae deletion strains, growth OD, locus YCL061C, strain MRC1 (second series), stronger effect = lower value
Screen size: about 5,500 compounds; about 2,000 (36%) were called active. About 18% were inconclusive and are not listed. This is one part of the list.

# molecule, normalized growth
measured = [
    ("O=C(NCCNCC(O)COc1ccc(O)cc1)N1CCOCC1 (configuration not stated)", "1 (inactive)"),
    ("O=C(O)CN(CCOCCOCCN(CC(=O)O)CC(=O)O)CC(=O)O", "1 (inactive)"),
    ("NCCS(=O)O", "1.01 (inactive)"),
    ("Cc1c(OCC(F)(F)F)ccnc1CS(=O)c1nc2ccccc2[nH]1 (configuration not stated)", "0.997 (inactive)"),
    ("NC(=O)c1cc(N2CC2)c([N+](=O)[O-])cc1[N+](=O)[O-]", "0.994 (inactive)"),
    ("Nc1nc2c(ncn2COC(CO)CO)c(=O)[nH]1", "1.01 (inactive)"),
    ("CNCCC(Oc1ccccc1C)c1ccccc1 (configuration not stated)", "0.995 (inactive)"),
    ("COc1cc(C(=O)OCCCN2CCCN(CCCOC(=O)c3cc(OC)c(OC)c(OC)c3)CC2)cc(OC)c1OC", "1.01 (inactive)"),
    ("C[C@H]1CC2C3CCC4=CC(=O)C=C[C@]4(C)[C@@]3(Cl)[C@@H](O)C[C@]2(C)[C@@]1(O)C(=O)CO (some centres not stated)", "1.01 (inactive)"),
    ("O=C(O)CCC(=O)N1CCCC1C(=O)O (configuration not stated)", "1 (inactive)"),
    ("CCC1(O)C(=O)OCc2c1cc1n(c2=O)Cc2cc3ccccc3nc2-1 (configuration not stated)", "0.977 (inactive)"),
    ("COC(=O)C(N)Cc1ccc(Cl)cc1 (configuration not stated)", "0.993 (inactive)"),
    ("CN[C@@H]1C[C@@H](c2ccc(Cl)c(Cl)c2)c2ccccc21", "0.942 (inactive)"),
    ("NC(N)=NC(N)=Nc1cccc(Cl)c1", "1.01 (inactive)"),
    ("Cc1ccc(OCC(O)C(C)NC(C)C)c2c1CCC2 (configuration not stated)", "0.993 (inactive)"),
    ("C/C=C/CC(C)C(O)C1C(=O)NC(CC)C(=O)N(C)CC(=O)N(C)C(CC(C)C)C(=O)NC(C(C)C)C(=O)N(C)C(CC(C)C)C(=O)NC(C)C(=O)NC(C)C(=O)N(C)C(CC(C)C)C(=O)N(C)C(CC(C)C)C(=O)N(C)C(C(C)C)C(=O)N1C (configuration not stated)", "0.983 (inactive)"),
    ("Cc1nc(N=Nc2cc(S(=O)(=O)O)c3cc([N+](=O)[O-])cc(S(=O)(=O)O)c3c2)c(COP(=O)(O)O)c(C=O)c1O", "1 (inactive)"),
    ("O=C(CCCN1CCC(O)(c2cccc(C(F)(F)F)c2)CC1)c1ccc(F)cc1", "0.974 (inactive)"),
    ("CCN(CC)C(=O)N[C@@H]1C[C@@H]2c3cccc4[nH]cc(c34)C[C@H]2N(C)C1", "1.01 (inactive)"),
    ("CC(=O)NC(CS)C(=O)O (configuration not stated)", "0.993 (inactive)"),
    ("CP(=O)(O)CCCN", "1 (inactive)"),
    ("CCCN(CC1CC1)c1nc(C)nc(Nc2c(Cl)cc(Cl)cc2Cl)c1Cl", "1 (inactive)"),
]
